Target: Inadl_6, Q8NI35
Sequence (Q8NI35 1058-1167): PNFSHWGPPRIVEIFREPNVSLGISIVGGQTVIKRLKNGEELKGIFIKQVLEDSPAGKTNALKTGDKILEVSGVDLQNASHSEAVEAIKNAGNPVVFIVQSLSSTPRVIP
Assay: holdup assay
Set-up: key: below the threshold = too weak to quantify, mostly under pKd 3.1 to 4
Details: plain residues with an end cap or a label only (N-terminal biotin on a linker: ado-ado)
measurement-type: pKd

>>> print(df.to_string())
                                   binder      observed_result
0              FVHPILQSAV [PRKCA, P17252]  below the threshold
1               EEPEERHTEL [CES2, O00748]                 3.87
2            TETASVCTKV [SLC23A1, Q9UHI7]  below the threshold
3          GFGEERESIL [KIDINS220, Q9ULH0]                  4.1
4  QKNKDKEYYV [NRXN3_rs746444206, Q9Y4C0]  below the threshold
